system: RAW-Dual; assay: NF-kB SEAP reporter activity, fold change vs agonist alone; cytotoxicity flag (confluency mask): not cytotoxic; higher = enhanced NF-kB activity; settings: agonist: Pam3CSK4 (TLR2/1) 0.1 ug/mL
Whole data set: some 2,900 compounds, median “NF-kB SEAP reporter activity, fold change vs agonist alone” near 0.99, cut for the highest 2% near 2.6. The full list was thinned out, with the highest values kept by preference.
MEASURED_ATTRIBUTE: NF-kB SEAP reporter activity

Field request: NF-kB SEAP reporter activity | item: N#Cc1ccc2ncnc(NCCc3ccccc3)c2c1 (library stock concentration (final ~1000-fold dilution): 10 mM)
1.76

Tell me the measured NF-kB SEAP reporter activity of CN1C2=C3N=c4ccccc4=C3CCN2C(=O)c2ccccc21.Cl (library stock concentration (final ~1000-fold dilution): 10 mM) , please.
1.1

Recorded NF-kB SEAP reporter activity for CCC1(O)C(=O)OCc2c1cc1n(c2=O)Cc2cc3c(CN(C)C)c(O)ccc3nc2-1 (stereo unspecified) (library stock concentration (final ~1000-fold dilution): 10 mM) , please?
1.27

Using the record for CCC1(O)C(=O)OCc2c1cc1n(c2=O)Cc2cc3cc(O)ccc3nc2-1 (stereo unspecified) (library stock concentration (final ~1000-fold dilution): 10 mM) , report its NF-kB SEAP reporter activity.
1.14

Item Cc1ccc(CNc2ncnc3ccc(-c4ccc(CO)o4)cc23)o1 (library stock concentration (final ~1000-fold dilution): 10 mM) has what recorded NF-kB SEAP reporter activity?
1.4

Please give the measured NF-kB SEAP reporter activity for this molecule: CCCC(NC1CCc2cc(F)cc(F)c2C1)C(=O)Nc1cn(C(C)(C)CNCC(C)(C)C)cn1 (stereo unspecified) (library stock concentration (final ~1000-fold dilution): 10 mM)
0.298

----------
tested on: RAW-Dual; assay: NF-kB SEAP reporter activity, fold change vs agonist alone; higher = enhanced NF-kB activity; details: library stock concentration (final ~1000-fold dilution): 10 mM; cytotoxicity flag (confluency mask): cytotoxic (confluency <70% of control); agonist: Imiquimod (TLR7) […]
Whole data set: some 2,900 compounds, median “NF-kB SEAP reporter activity, fold change vs agonist alone” near 0.99, cut for the highest 2% near 2.6. What follows is part of a selection rich in the highest values, with near analogues and random picks from the rest.
Kindly supply the reported NF-kB SEAP reporter activity values for the records listed here.

Item under review: COc1cc2c(cc1-c1c(C)noc1C)ncc1[nH]c(=O)n(C(C)c3ccccn3)c12 (stereo not given) . Reported NF-kB SEAP reporter activity?
2.61

Which NF-kB SEAP reporter activity reading was recorded for the compound `CCOC(=O)c1cnc2ccc(-c3cncc(NS(=O)(=O)c4ccccc4)c3)cn12` ?
1.31

Fill in: NF-kB SEAP reporter activity of COc1ccc(-c2oc3c(CC=C(C)C)c(O)cc(O)c3c(=O)c2OC2OC(C)C(O)C(O)C2O)cc1 (stereo not given) is ___
1.82

Need NF-kB SEAP reporter activity of `O=C(/C=C/c1cncc(F)c1)c1c(-c2ccccc2)c2cc(Cl)ccc2[nH]c1=O` , thanks.
0.157

I have this compound here, `Nc1nc(Nc2ccc(S(N)(=O)=O)cc2)nn1C(=O)c1c(F)cccc1F` , and I need its recorded NF-kB SEAP reporter activity.
1.97

----------
Provide the reported NF-kB SEAP reporter activity of each item.
system: RAW-Dual; experiment: NF-kB SEAP reporter activity, fold change vs agonist alone; cytotoxicity flag (confluency mask): cytotoxic (confluency <70% of control); higher = enhanced NF-kB activity; settings: agonist: ODN 1826 (TLR9) 0.5 ug/mL
The full ranking holds about 2,900 compounds; the median of “NF-kB SEAP reporter activity, fold change vs agonist alone” is about 0.99, and the highest 2% start at about 2.6. The sample holds the highest values, similar compounds and a random draw of the others, so the mix is not that of the screen.
Answer as a number with no unit attached.

// NF-kB SEAP reporter activity lookup, key: CCn1cc(-c2cccc(C(F)(F)F)c2)c2sc(C(=N)NC3CCS(=O)(=O)CC3)cc2c1=O (library stock concentration (final ~1000-fold dilution): 10 mM)
0.721

# get_value(readout='NF-kB SEAP reporter activity', item= CNCCC(Oc1cccc2ccccc12)c1cccs1 (stereo unspecified) (library stock concentration (final ~1000-fold dilution): 10 mM) )
0.191

May I ask what NF-kB SEAP reporter activity has been recorded for CC(C)(C)CC1NC(C(=O)NC2CCC(O)CC2)C(c2cccc(Cl)c2F)C12C(=O)Nc1cc(Cl)ccc12 (stereo unspecified) (library stock concentration (final ~1000-fold dilution): 10 mM) ?
2.82

Entry under review: COc1cc2c(cc1-c1c(C)noc1C)ncc1[nH]c(=O)n(C(C)c3ccccn3)c12 (stereo unspecified) (library stock concentration (final ~1000-fold dilution): 10 mM) . Reported NF-kB SEAP reporter activity?
2.55

Value lookup for NF-kB SEAP reporter activity; key = C1=CCOCc2cc(ccc2OCCN2CCCC2)Nc2nccc(n2)-c2cccc(c2)COC1 (library stock concentration (final ~1000-fold dilution): 10 mM)
0.245

If you can, please state the reported NF-kB SEAP reporter activity value of Cc1[nH]c(/C=C2\C(=O)Nc3ccc(S(=O)(=O)Cc4c(Cl)cccc4Cl)cc32)c(C)c1C(=O)N1CCCC1CN1CCCC1 (stereo unspecified) (library stock concentration (final ~1000-fold dilution): 10 mM) .
1.39

# input compound: COc1cc(F)ccc1-c1ncnc(Nc2cccc(CS(C)(=N)=O)c2)n1 (stereo unspecified) (library stock concentration (final ~1000-fold dilution): 10 mM) ; wanted: its NF-kB SEAP reporter activity
1.4

Need NF-kB SEAP reporter activity, item Nc1ccn(C2OC(CO)C(O)C2(F)F)c(=O)n1 (stereo unspecified) (library stock concentration (final ~1000-fold dilution): 10 mM)
1.88

Could you tell me which NF-kB SEAP reporter activity is on file for CN1CCc2cc(Nc3ncc(C4CC4)c(NCCCNC(=O)C4CCC4)n3)ccc2C1 (library stock concentration (final ~1000-fold dilution): 10 mM) ?
0.207

Please give the measured NF-kB SEAP reporter activity for this compound: Cl.NCCOCCOCCNC(=O)Cc1ccc(Nc2nc(NCc3ccc(F)cc3)nc(NCC3CCCCC3)n2)cc1 (library stock concentration (final ~1000-fold dilution): 10 mM)
0.852

Which NF-kB SEAP reporter activity value is on record for COc1ccc2cc1Oc1ccc(cc1)CC1c3cc(c(OC)cc3CCN1C)Oc1c(O)c(OC)cc3c1C(C2)N(C)CC3 (stereo unspecified) (library stock concentration (final ~1000-fold dilution): 10 mM) ?
0.241

----------
test system: RAW-Dual; assay: NF-kB SEAP reporter activity, fold change vs agonist alone; cytotoxicity flag (confluency mask): not cytotoxic; higher = enhanced NF-kB activity; conditions: agonist: Pam3CSK4 (TLR2/1) 0.1 ug/mL
Over roughly 2,900 compounds, “NF-kB SEAP reporter activity, fold change vs agonist alone” has its median near 0.99; the highest 2% begin near 2.6. The sample as a whole holds a higher share of the highest values than the screen did.
MEASURED_ATTRIBUTE: NF-kB SEAP reporter activity

Could you share which NF-kB SEAP reporter activity value was measured for C=C(C)C1CCC2(C)CCC3(C)C(CCC4C5(C)CCC(O)C(C)(C)C5CCC43C)C12 (stereo unspecified) (library stock concentration (final ~1000-fold dilution): 2 mM) ?
0.917

Record request: NF-kB SEAP reporter activity value, item CC1(C)OC2COC3(COS(N)(=O)=O)OC(C)(C)OC3C2O1 (stereo unspecified) (library stock concentration (final ~1000-fold dilution): 10 mM)
1.12

Data request, read-out NF-kB SEAP reporter activity, for CCCCCCOC(=O)c1cc(O)c(=O)c2c(O)c(O)c(OC)cc2c1 (library stock concentration (final ~1000-fold dilution): 10 mM)
0.895

Given the entry CCCC(=O)Nc1ccc(OCC(O)CNC(C)C)c(C(C)=O)c1.Cl (stereo unspecified) (library stock concentration (final ~1000-fold dilution): 10 mM) , report its measured NF-kB SEAP reporter activity.
1.16

Give its NF-kB SEAP reporter activity value. Item: CS(=O)(=O)c1cccc(CC(NC(=O)c2c(Cl)cc3c(c2Cl)CCN(C(=O)c2ccc4ccoc4c2)C3)C(=O)O)c1 (stereo unspecified) (library stock concentration (final ~1000-fold dilution): 10 mM)
0.941

Fill blank: measured NF-kB SEAP reporter activity of the molecule CC(NCc1ccc(OCc2cccc(F)c2)cc1)C(N)=O.CS(=O)(=O)O (stereo unspecified) (library stock concentration (final ~1000-fold dilution): 10 mM) is ____.
1.1

Please look up its NF-kB SEAP reporter activity: Cl.Cl.c1cc(-c2cnn3cc(-c4ccc(OCCN5CCCCC5)cc4)cnc23)ccn1 (library stock concentration (final ~1000-fold dilution): 10 mM water)
1.92

Can you look up the measured NF-kB SEAP reporter activity of O=C(NC(C1CC1)C(F)(F)F)c1cc(-c2cnn3cc(-c4ccc(F)cc4)cnc23)cs1 (stereo unspecified) (library stock concentration (final ~1000-fold dilution): 10 mM) for me?
3.14

For the molecule shown here, c1cc(-c2cnn3cc(-c4ccc(OCCN5CCCCC5)cc4)cnc23)ccn1 (library stock concentration (final ~1000-fold dilution): 2 mM) , give the reported NF-kB SEAP reporter activity.
1.28

Name the recorded NF-kB SEAP reporter activity for CCCCCOc1ccc(-c2cc(-c3ccc(C(=O)NC4CC(O)C(O)NC(=O)C5C(O)C(C)CN5C(=O)C(C(O)CC(N)=O)NC(=O)C(C(O)C(O)c5ccc(O)c(OS(=O)(=O)O)c5)NC(=O)C5CC(O)CN5C(=O)C(C(C)O)NC4=O)cc3)no2)cc1 (stereo unspecified) (library stock concentration (final ~1000-fold dilution): 10 mM water) .
1.09

Looking for the measured NF-kB SEAP reporter activity of COc1cc2c(cc1OC)C1CC(OC(=O)C(N)C(C)C)C(CC(C)C)CN1CC2.Cc1ccc(S(=O)(=O)O)cc1.Cc1ccc(S(=O)(=O)O)cc1 (stereo unspecified) (library stock concentration (final ~1000-fold dilution): 10 mM) , can you help?
0.889

NF-kB SEAP reporter activity for Oc1cc(CNC(=S)/C=C/c2cc(O)c(O)c(Br)c2)cc(O)c1O (library stock concentration (final ~1000-fold dilution): 10 mM) ?
0.821

Requested read-out: NF-kB SEAP reporter activity. Entry: O=C(Nc1ccc(O)c(C(=O)O)c1)c1cccc(NC(=O)c2ccco2)c1 (library stock concentration (final ~1000-fold dilution): 10 mM)
1.06

Tell me the measured NF-kB SEAP reporter activity of CC(=O)N1CCCC1C(=O)NC(Cc1c[nH]cn1)C(=O)NC(CO)C(=O)NC(CS)C(=O)NC(CC(N)=O)C(N)=O (stereo unspecified) (library stock concentration (final ~1000-fold dilution): 10 mM water) , please.
1.02

What does the record list as NF-kB SEAP reporter activity for CCN(CC)C(=O)C1(c2ccccc2)CC1CN.Cl (stereo unspecified) (library stock concentration (final ~1000-fold dilution): 10 mM) ?
1.18

Quick check: NF-kB SEAP reporter activity of CC(C(=O)O)c1cccc(C(=O)c2ccccc2)c1 (stereo unspecified) (library stock concentration (final ~1000-fold dilution): 10 mM) ?
1.19

Please give the measured NF-kB SEAP reporter activity for this molecule: CCn1cc(C(=O)O)c(=O)c2c(N)c(F)c(NC3CCCCC3)cc21 (library stock concentration (final ~1000-fold dilution): 10 mM)
3.32

Tell me the measured NF-kB SEAP reporter activity of CC(C)CN(CC(O)C(Cc1ccccc1)NC(=O)OC1CCOC1)S(=O)(=O)c1ccc(N)cc1 (stereo unspecified) (library stock concentration (final ~1000-fold dilution): 10 mM) , please.
1.32

Give the measured NF-kB SEAP reporter activity of O=C(Nc1ccccc1C(=O)O)c1cc(S(=O)(=O)c2ccccc2)ccc1Cl (library stock concentration (final ~1000-fold dilution): 10 mM) .
1.13

Given the entry C=C1CCC2C(C)(COC(=O)CCC(=O)O)C(OC(=O)CCC(=O)O)CCC2(C)C1C=CC1=CCOC1=O (stereo unspecified) (library stock concentration (final ~1000-fold dilution): 10 mM) , report its measured NF-kB SEAP reporter activity.
1.02

I am curious: what NF-kB SEAP reporter activity value has been reported for O=C(N/N=C/c1ccc(O)c(O)c1)c1cc2ccccc2cc1O (library stock concentration (final ~1000-fold dilution): 10 mM) ?
0.192
